# measurement.notes: inhibition of 3D7 malaria parasite growth – strain 3D7 (AID 2306);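 also: 0% = DMSO wells and 100% = chloroquine plus artemisinin control wells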
# test.conditions: P. falciparum 3D7 erythrocytic growth, LDH absorbance, 72 h; at 2 µM; hits give high values
Calls of active or inactive are those of the source. No rule for the calls is given here.
For each of the molecules below, state its growth inhibition.

COc1ccc(NC(=O)c2ccc(Br)c(C)c2)cc1N1CCN(Cc2ccccc2)CC1 ... 95% (active)
CCCCCCSc1nnc(COc2cccc3ccccc23)n1-c1ccc(OC)cc1 ... 99% (active)
CCNC(=O)Nc1ccc(-c2cccc(-c3nc4c(C)cccc4[nH]3)c2)cc1 ... 91% (active)

For every item in the list below, what is its measured growth inhibition?
1. Cc1ccc2nc(-c3ccc(C=CC(=O)NC4CCN(Cc5ccccc5)CC4)cc3)[nH]c2c1
2. COc1cccc(Nc2nc(C)cc(NC3CCN(Cc4ccccc4)CC3)n2)c1

1: 101% (active); 2: 102% (active)

For every item in the list below, what is its measured growth inhibition?
1. Cc1cc(N[C@@H](CC(C)C)C(=O)NC2CCCC2)nc(NCc2ccccc2C)n1
2. CC(=O)Nc1ccc(CN2CCC(NC(=O)c3ccc(-c4cccc(C(F)(F)F)c4)s3)CC2)cc1
3. COc1cccc2cc(C(=O)N[C@@H](CC(C)C)C(=O)N[C@H](/C=N/NC(=O)Cc3cccnc3)CCc3ccccc3)oc12

1: 98% (active); 2: 100% (active); 3: 82% (active)

Look at this molecule and give its reported growth inhibition. `CCOc1cc(C(=O)Nc2ccc3nc(N4CCCCC4)cc(C)c3c2)cc(OCC)c1OCC` 100% (active)

----------
# measurement.notes: human hepatoma cell viability loss – ATP luminescence, cytotoxicity control for P. falciparum antimalarial project, primary screen (AID 2303);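 also: 0% = DMSO wells and 100% = digitonin-killed cells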
# test.conditions: HepG2 viability, 24-48 h, at 10 µM, hits give high values
measurement.label: inhibition (%)
Give bare numbers, in %.

Known results for compounds:
O=C(N[C@@H]1C[C@H]1c1ccccc1)N(CCCn1ccnc1)Cc1csc(-c2ccc(CNCc3ccccc3)cc2)n1 ... 6
COc1ccc(CNc2ncc(-c3ccsc3)c(-c3nccs3)n2)cc1OC ... 10
Cn1nc(-c2ccc(NC(=O)Nc3cc(C(F)(F)F)ccc3F)c(F)c2)c2cnc(NCCCN3CCOCC3)nc21 ... 31
FC(F)(F)c1ccc2nc(-c3ccc(-c4cccc(CNCCc5cccnc5)c4)s3)[nH]c2c1 ... 26
CS(=O)(=O)c1ccc(-c2cncc(Nc3cccc([N+](=O)[O-])c3)c2)cc1 ... 6

For every item in the list below, what is its measured inhibition?
1. COc1ccc(CNC(=O)NC2CCN(c3ccnc(Nc4cc(OC)c(OC)c(OC)c4)n3)C2)cc1 (configuration not stated)
2. Fc1ccccc1C=NNc1ccnc2ccccc12
3. O=C(NCc1ccc(F)cc1)c1cc(Br)cc(N2CCN(c3ccncc3)CC2)c1
4. COc1cccc(Nc2nc(C)cc(NCc3ccc(-c4c(C)noc4C)cc3)n2)c1

1: -2; 2: 8; 3: 36; 4: 33

For every item in the list below, what is its measured inhibition?
1. COc1cc2nc(N3CCC(CNC(=O)c4ccc(C(C)=O)cc4)CC3)nc(N)c2cc1OC
2. COc1cc2nc(N3CCC(CNC(=O)c4cccc5cc[nH]c45)CC3)nc(N)c2cc1OC
3. O=[N+]([O-])c1cccc(CNCC2CCC(CNCc3cccc([N+](=O)[O-])c3)CC2)c1 (configuration not stated)
4. Cc1ccc(C(=O)NCC2CCN(c3ccc(C(F)(F)F)cc3NC(=O)c3ccco3)CC2)cn1
5. O=C(Nc1ccc(Cl)c(Cl)c1)N1CCc2ccc(OCCCN3CCCCC3)cc2CC1
6. CCCCCCCC1=NN2C(=N)C(=Cc3cc(Br)c(OCc4ccc(F)cc4)c(OCC)c3)C(=O)N=C2S1
7. Cc1ccc2oc3cc(-c4nn[nH]n4)ccc3c(=O)c2c1
8. CCCN(CCC)C(C)CCC(C)Nc1c2ccc(Cl)cc2nc2ccc(OC)cc12 (configuration not stated)

[10, 33, 39, 9, 27, 4, 2, 41]

For every item in the list below, what is its measured inhibition?
1. O=C(Nc1cc(Cl)cc(Cl)c1)Nc1ccccc1C(=O)NC1CCCCC1
2. CCN(CC)CCN(Cc1ccc(-c2ccc(C(F)(F)F)cc2)nc1)C(=O)Cn1cc(Cc2cnn(C)c2)c(=O)n2nc(-c3ccccc3)cc12
3. c1ccc2c(Nc3ccc(Cc4ccc(Nc5c6ccccc6nc6ccccc56)cc4)cc3)c3ccccc3nc2c1
4. Oc1ccc2nc(N3CCNCC3)nc(NCCCc3ccccc3)c2c1
5. Cc1ccc(-c2nc3cc(NC(=O)c4ccc([N+](=O)[O-])o4)ccc3o2)cc1Cl

1. 12
2. 35
3. 93
4. 14
5. 24

For every item in the list below, what is its measured inhibition?
1. CCOc1ccccc1CCNCC1CCN(CC2CCCCC2)CC1
2. COCCN1CCC(NCC(C)(C)c2nc(-c3ccc(Cl)c(O)c3)c(-c3ccncc3)[nH]2)CC1
3. O=S(=O)(c1ccc(OCc2ccc(Cl)cc2)cc1)c1cc2c(cc1OCc1ccccc1)CCN(C1CCC1)CC2
4. N#Cc1ccc2c(c1)CCN(CCC1CCC(NC(=O)Nc3ccnc4ccccc34)CC1)C2 (configuration not stated)
5. CCOc1cc(NC(=O)Nc2ccnc3ccccc23)cc(OC)c1

[35, -8, 17, 38, -7]

For every item in the list below, what is its measured inhibition?
1. COc1cccc(OC)c1C(=O)Nc1cccc(-c2nn3ccccc3c2-c2ccnc(Nc3cccc(F)c3)n2)c1
2. COc1ccc(NC(=O)Nc2ccc(-c3ccncc3)c(C(F)(F)F)c2)cc1N1CCN(C)CC1
3. Cc1ccc(NC(=O)c2ccc3ncccc3c2)cc1OC1CCN(Cc2ccc(F)cc2)CC1
4. CCn1c(Sc2ccc(C#N)c([N+](=O)[O-])c2)nnc1-c1ccc(Cl)cc1

1. 3
2. 5
3. 6
4. 0

For every item in the list below, what is its measured inhibition?
1. CCCCOC(=O)C1=C(C)NC2=C(C(=O)CCC2)C1c1ccc(OC)c(Br)c1 (configuration not stated)
2. O=C(Nc1ccc(Cl)c(-c2nc3ccccc3[nH]2)c1)c1ccc(-c2ccc(Cl)cc2)o1
3. Clc1cccc(C23N=C(Nc4nc5ccccc5[nH]4)NC2(c2ccccc2)NC(Nc2nc4ccccc4[nH]2)=N3)c1 (configuration not stated)
4. Cc1ccc(Cn2nc(Cl)c(N3CCCNCC3)cc2=O)cc1NC(=O)Nc1ccc(-c2ccccc2)cc1

1: 5; 2: 16; 3: -3; 4: 90

For every item in the list below, what is its measured inhibition?
1. Cc1cc(NC(=O)NCCN2CCC(NS(=O)(=O)c3cccc(Br)c3)C2)c2ccccc2n1 (configuration not stated)
2. CC(C)(C)OC(=O)NCc1ccc(Nc2nnc(-c3cccc(OCC(=O)NCc4cc(C(F)(F)F)cc(C(F)(F)F)c4)c3)o2)cc1

1: 0; 2: 32

----------
# target.or.system: L-lactate dehydrogenase (Plasmodium falciparum (isolate CDC / Honduras))
# measurement.notes: PfLDH activity inhibition – cell lysate, 3D7 strain, counter-screen for P. falciparum growth inhibition project (AID 2304);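 also: 0% = vehicle and 100% = reference inhibitor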
# test.conditions: P. falciparum 3D7 crude extract, LDH APAD/NBT absorbance; at 2 µM; hits give high values
measurement.label: inhibition (%)
Give bare numbers, in %.

Known results for compounds:
NC1=NC2(CCCCC2)N(OCCCCCCCCNc2nc(N)nc(N)n2)C(N)=N1 ... -5
Cc1ccc(C(=O)N2CCc3cc4nccc(N5CCN6CCC[C@H]6C5)c4cc32)cc1 ... -5
Fc1cccc(COc2ccc(Nc3ncnc4ccc(C#C[C@H]5CCCN5)cc34)cc2Cl)c1 ... -2
O=C(Nc1ccc(Cl)c(Cl)c1)N(Cc1ccccc1Br)C1CCNCC1 ... 7
COc1ccc2nccc([C@@H](O)CN3CCC(NCc4ccc5c(c4)N(C)C(=O)CO5)CC3)c2c1 ... 6
OC(CNCc1ccccc1Oc1ccccc1)c1cc(Br)cs1 (centres undefined) ... -4

For every item in the list below, what is its measured inhibition?
1. CN(C)CCNc1cc(-c2cccnc2)nc(-c2ccncc2)n1
2. N=c1n(Cc2ccccc2)c2ccccc2n1CC(O)c1ccc(Cl)cc1 (centres undefined)
3. Cc1cc2nc(-c3ccc(/C=C/C(=O)NC4CCN(Cc5ccccc5)CC4)cc3)[nH]c2cc1C

[-5, -1, -2]

For every item in the list below, what is its measured inhibition?
1. O=C(N[C@@H](Cc1ccccc1)C(=O)NC1CCCc2ccccc21)c1ccc(O)c(-c2cccc(C(F)(F)F)c2)c1 (some centres undefined)
2. Cc1ccc2oc3cc(-c4nn[nH]n4)ccc3c(=O)c2c1
3. CC(C)Nc1nc(NCCc2cnc[nH]2)nc(NCc2cccc3ccccc23)n1
4. Cc1[nH]c(C)c(-c2ccc(OCCOc3ccc(C(F)(F)F)cn3)cc2)c(=O)c1Br

-1
-6
2
3

For every item in the list below, what is its measured inhibition?
1. COc1ccc(CNC2CCN(C)CC2)cc1-c1ccc(OC)c(S(=O)(=O)NCc2ccccc2)c1
2. Cc1nc2nc(N)nc(N)c2c(C)c1Cc1ccc(Cl)cc1
3. Nc1cccc(CNCc2cccc(-c3csc(-c4nc5ccccc5[nH]4)c3)c2)c1
4. CC(C)CN1CCC(COc2ccc3ncn(-c4cc(O[C@H](C)c5ccccc5C(F)(F)F)c(C(N)=O)s4)c3c2)CC1
5. CCN(CC)CCN(Cc1ccc(-c2ccc(C(F)(F)F)cc2)nc1)C(=O)Cn1cc(Cc2cnn(C)c2)c(=O)n2nc(-c3ccccc3)cc12

[5, 0, 4, 7, -3]

Look at this compound and give its reported inhibition. `CCN(C)CCCn1c(N(C)C)nc2cc(-n3cnc4cc(-c5ccc(Cl)cc5)sc4c3=O)ccc21` 5
